TEST TARGET: T1, DnaD DDBH2 domain (residues 129-232) (Bacillus subtilis, UniProt P39787 129-232)
T1 sequence: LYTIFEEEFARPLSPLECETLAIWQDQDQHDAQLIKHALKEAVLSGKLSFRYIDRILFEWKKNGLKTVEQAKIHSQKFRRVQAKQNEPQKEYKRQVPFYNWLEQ
METHOD NOTES: NMR titration
RECORDED ENDPOINT: pKd
# reply with the number alone; pKd is -log10 of concentration in mol/L

Challenge: Fill in reported pKd for this entry: DnaA domain I (residues 1-81) (domain or fragment) MENILDLWNQALAQIEKKLSKPSFETWMKSTKAHSLQGDTLTITAPNEFARDWLESRYLHLIADTIYELTGEELSIKFVIP
Response given: 3.18
